test system: bovine tubulin; test: In vitro tubulin polymerization assay (turbidity at 340 nm); assay type: biochemical; conditions: 10 μM compound, 30 minute data point, vs 1% DMSO control
Class (required): determined from Tubulin Assay: percent inhibition at 10 μM based on 30 minute data; valid ranges are lowest = under 40%, middle = from 40% up to 70%, highest = 70% and over

Assign a category based on measured Tubulin Assay: percent inhibition at 10 μM based on 30 minute data for Fc1cccc(CNc2ncccc2-c2nnc(Nc3ccc4c(c3)OCCO4)o2)c1 and give only the class name.
highest

Try this molecule too: c1cnc(OCc2ccc3c(c2)OCO3)c(-c2nnc(Nc3ccc4c(c3)OCCO4)[nH]2)c1
highest

Try this molecule too: COc1cc(Nc2ncccc2-c2nnc(-c3ccc4c(c3)OCO4)[nH]2)cc(OC)c1
lowest

Try this molecule too: COc1cccc(-c2nnc(-c3cccnc3NCc3ccc4c(c3)OCO4)[nH]2)c1
middle

Try this molecule too: Fc1ccc(CNc2ncccc2-c2nnc(Nc3ccc4c(c3)OCO4)[nH]2)cc1F
highest

Try this molecule too: c1ccc(-c2cnc(Nc3ccc4c(c3)OCCO4)o2)c(OCc2ccncc2)c1
middle

Try this molecule too: COc1ccc(Nc2nnc(-c3cccnc3NCc3cccnc3)[nH]2)c(OC)c1
lowest

Try this molecule too: COc1cccc(CNc2ncccc2-c2nnc(Nc3ccc4c(c3)OCO4)o2)c1
middle

Try this molecule too: COc1cccc(-c2nnc(-c3ccccc3NCc3ccc4cn[nH]c4c3)[nH]2)c1
lowest

Try this molecule too: c1cncc(CNc2ncccc2-c2nnc(Nc3ccc4c(c3)OCO4)[nH]2)c1
middle

Try this molecule too: Fc1cccc(CNc2ncccc2-c2nnc(Nc3ccc4c(c3)OCO4)o2)c1
highest

Try this molecule too: COc1cc(Nc2ncccc2-c2nnc(-c3ccc(S(C)(=O)=O)cc3)o2)cc(OC)c1
lowest

Try this molecule too: FC(F)(F)c1cccc(-c2nnc(-c3cccnc3NCc3ccncc3)[nH]2)c1
lowest

Try this molecule too: COc1cccc(Nc2nnc(-c3ccccc3NCc3ccc4[nH]ncc4c3)[nH]2)c1
highest
